system: Staphylococcus aureus; experiment: Antibacterial activity against Staphylococcus aureus ATCC 29213 incubated assessed as inhibition of bacterial growth for 20 to 22 hrs by broth microdilution method; format: functional; conditions: time 20-22 hrs
quantity: MIC (µg/mL)
Answers are plain numbers, in µg/mL.

INSERT INTO measurements (smiles_code, target, measured) VALUES
  ('Cl.Fc1cc(-c2nc3ccc(C4=NCCCN4)cc3s2)ccc1OCc1c[nH]nn1', 'Staphylococcus aureus', 128),
  ('Cl.O=C(COc1ccc(-c2nc3ccc(C4=NCCCN4)cc3s2)cc1F)c1ccccc1', 'Staphylococcus aureus', 128);

# return MIC for each item in the list
1. CC[C@H]1OC(=O)[C@H](C)[C@@H](O[C@H]2C[C@@](C)(OC)[C@@H](O)[C@H](C)O2)[C@H](C)[C@@H](O[C@@H]2O[C@H](C)C[C@H](N(C)C)[C@H]2O)[C@](C)(O)C[C@@H](C)CN(C)[C@H](C)[C@@H](O)[C@]1(C)O
2. Cl.c1ccc(Cn2cc(COc3ccc(-c4nc5ccc(C6=NCCCN6)cc5s4)cc3)nn2)cc1
3. Cl.O=C(COc1ccc(-c2nc3ccc(C4=NCCCN4)cc3s2)cc1)c1ccccc1

OUT:
[2, 128, 128]
